pKi: −log10 of the molar value.
For reference, pKi measured on hMCHR (Homo sapiens):

>  <molecular.string>
O=C(NCC1(c2ccc(-c3ccc4c(c3)OCO4)cc2)CCN(C2CCCC2)CC1)Nc1cc(Cl)cc(Cl)c1

>  <assay.system>
hMCHR (Homo sapiens)
Sequence (Q99705 whole entry): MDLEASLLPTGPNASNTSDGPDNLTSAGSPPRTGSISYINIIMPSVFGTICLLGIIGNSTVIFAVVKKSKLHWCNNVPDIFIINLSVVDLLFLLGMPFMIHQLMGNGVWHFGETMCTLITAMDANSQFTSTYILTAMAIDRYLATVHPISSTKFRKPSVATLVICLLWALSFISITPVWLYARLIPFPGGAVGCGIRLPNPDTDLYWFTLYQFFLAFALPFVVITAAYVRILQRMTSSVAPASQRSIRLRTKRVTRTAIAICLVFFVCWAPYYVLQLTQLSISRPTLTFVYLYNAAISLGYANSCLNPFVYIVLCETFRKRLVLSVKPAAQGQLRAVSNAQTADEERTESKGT

>  <pKi>
8.00 to 9.70

$$$$
>  <molecular.string>
CN1CCC(CNC(=O)Nc2cc(Cl)cc(Cl)c2)(c2ccc(-c3ccc4c(c3)OCO4)cc2)CC1

>  <assay.system>
hMCHR (Homo sapiens)

>  <pKi>
8.00 to 9.70

$$$$
>  <molecular.string>
CCN1CCC(CNC(=O)Nc2cc(Cl)cc(Cl)c2)(c2ccc(-c3cccc(Cl)c3)cc2)CC1

>  <assay.system>
hMCHR (Homo sapiens)

>  <pKi>
7.00 to 7.96

$$$$

Then there is this molecule:
Query: Report measured pKi; entry is N#Cc1cccc(-c2ccc(C3(CNC(=O)Nc4ccc5c(c4)OCO5)CCN(CC4CC4)CC3)cc2)c1
Reply: 7.00 to 7.96

* * *

For reference, pKi measured on hMCHR (Homo sapiens, UniProt Q99705):
pKi: −log10 of the molar value.

>  <molecular.string>
CCCN1CCC(CNC(=O)Nc2cc(Cl)cc(Cl)c2)(c2ccc(C)cc2)CC1

>  <obs.value>
5.26 to 7.00

$$$$
>  <molecular.string>
N#Cc1cccc(-c2ccc(C3(CNC(=O)Nc4ccc(F)c(Cl)c4)CCN(CCC(F)(F)F)CC3)cc2)c1

>  <obs.value>
8.00 to 9.70

$$$$

Then there is this compound:
Query: Report measured pKi; entry is CCCN1CCC(CNC(=O)Nc2cc(F)cc(F)c2)(c2ccc(-c3cccc(C#N)c3)cc2)CC1
Reply: 8.00 to 9.70

* * *

- assay.system: hMCHR (Homo sapiens)
pKi: −log10 of the molar value.
Listed here: items and their measured pKi.

Look over these answered cases.
>  <compound>
O=C(NCC1(c2ccc(-c3cccc(Cl)c3)cc2)CCN(C2CCC2)CC1)Nc1cc(Cl)cc(Cl)c1 [Example 107]

>  <assay.system>
hMCHR (Homo sapiens)

>  <pKi>
5.26 to 7.00

$$$$
>  <compound>
Cc1ccc(C2(CNC(=O)Nc3cc(Cl)cc(Cl)c3)CCN(CC3CC3)CC2)cc1 [Example 25]

>  <assay.system>
hMCHR (Homo sapiens)

>  <pKi>
5.26 to 7.00

$$$$
>  <compound>
CCCN1CCC(CNC(=O)Nc2ccc(F)c(C(F)(F)F)c2)(c2ccc(-c3cccc(C#N)c3)cc2)CC1 [Example 103]

>  <assay.system>
hMCHR (Homo sapiens)

>  <pKi>
8.00 to 9.70

$$$$
>  <compound>
CN1CCC(CNC(=O)c2cc(Cl)cc(Cl)c2)(c2ccc(-c3cccc(Cl)c3)cc2)CC1 [Example 72]

>  <assay.system>
hMCHR (Homo sapiens)

>  <pKi>
5.26 to 7.00

$$$$
>  <compound>
CC(=O)Nc1cccc(-c2ccc(C3(CNC(=O)Nc4cc(Cl)cc(Cl)c4)CCN(C(C)C)CC3)cc2)c1 [Example 79]

>  <assay.system>
hMCHR (Homo sapiens)

>  <pKi>
8.00 to 9.70

$$$$

Then there is this compound:
Query: Report measured pKi; entry is CN1CCC(CNC(=O)Nc2ccc(Cl)cc2C(F)(F)F)(c2ccc(-c3cccc(Cl)c3)cc2)CC1 [Example 59]
Reply: 5.26 to 7.00
